B1: mRNA-splicing (parent)
chain: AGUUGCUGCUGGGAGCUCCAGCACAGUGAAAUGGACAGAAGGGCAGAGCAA

variants of: B1; test: exon inclusion enrichment index; higher = more inclusion; WT1 exon 5 minigene, HEK293
Please use Yes whenever exon inclusion enrichment index is not below 2, and No whenever it is.

Has G5C C6G U7C U10C G21A a recorded exon inclusion enrichment index greater than or equal to 2?
Yes

Again, but for C6A U7A C9A U10A A31U
No

Same thing, different variant: G5A C6G U7G C9A G26U U27A
No

Follow-up item: C6A U7A C9A U10A A37G G38A
No

C6A U7C C9A U10C G12U G13U , same question.
No
